Exercise: state measured kinase still bound, per cent of control for each of the molecules provided.
System under test: PRKX (human)
Assay notes: KINOMEscan competition binding
Applied conditions: compound 10.0 µM
The figure you give is taken to be in %; do not add the unit.

Q. Which kinase still bound, per cent of control value belongs to C[C@@H](Oc1cc(-n2cnc3ccc(CN4CCN(C)CC4)cc32)sc1C(N)=O)c1ccccc1C(F)(F)F ?
A. 100

Q. Which kinase still bound, per cent of control value belongs to C=CC(=O)Nc1cccc(Oc2nc(Nc3ccc(N4CCN(C)CC4)cc3OC)ncc2Cl)c1 ?
A. 100

Q. Which kinase still bound, per cent of control value belongs to OCCCNc1cc(-c2ccnc(Nc3cccc(Cl)c3)n2)ccn1 ?
A. 100

Q. Which kinase still bound, per cent of control value belongs to O=C(O)c1ccc(Nc2ncc3c(n2)-c2ccc(Cl)cc2C(c2c(F)cccc2F)=NC3)cc1 ?
A. 75

Q. Which kinase still bound, per cent of control value belongs to CC[C@@H]1C(=O)N(C)c2cnc(Nc3ccc(C(=O)NC4CCN(C)CC4)cc3OC)nc2N1C1CCCC1 ?
A. 100

Q. Which kinase still bound, per cent of control value belongs to CCN1CCN(Cc2ccc(Nc3ncc4c(n3)N(C)c3ccccc3C(=O)N4C)cc2C(F)(F)F)CC1 ?
A. 100

Q. Which kinase still bound, per cent of control value belongs to O=C(NOC[C@H](O)CO)c1ccc(F)c(F)c1Nc1ccc(I)cc1F ?
A. 100

Q. Which kinase still bound, per cent of control value belongs to Cc1ccc(NC(=O)c2cccc(C(C)(C)C#N)c2)cc1Nc1ccc2ncn(C)c(=O)c2c1 ?
A. 100

Q. Which kinase still bound, per cent of control value belongs to Cc1ccc(C(=O)Nc2cccc(C(F)(F)F)c2)cc1Nc1cncc(C(N)=O)c1 ?
A. 100

Q. Which kinase still bound, per cent of control value belongs to CN(C)C/C=C/C(=O)Nc1cccc(Nc2ncc3c(n2)N(C)c2ccccc2C(=O)N3C)c1 ?
A. 100

Q. Which kinase still bound, per cent of control value belongs to CCOc1cc2ncc(C#N)c(Nc3ccc(OCc4ccccn4)c(Cl)c3)c2cc1NC(=O)/C=C/CN(C)C ?
A. 100

Q. Which kinase still bound, per cent of control value belongs to O=C1Nc2ccc(I)cc2/C1=C/c1cc(Br)c(O)c(Br)c1 ?
A. 100

Q. Which kinase still bound, per cent of control value belongs to C=CC(=O)Nc1cc(NC(=O)c2ccc(C)c(NC(=O)c3ccno3)c2)cc(C(F)(F)F)c1 ?
A. 84

Q. Which kinase still bound, per cent of control value belongs to COc1cc(C(=O)NC2CCN(C)CC2)ccc1Nc1ncc2c(n1)N(C1CCCC1)CCC(=O)N2C(C)C ?
A. 100

Q. Which kinase still bound, per cent of control value belongs to COc1cc(C(=O)NC2CCN(C)CC2)ccc1Nc1ncc2c(n1)N(C1CCCC1)C(C)CC(=O)N2C (stereo unspecified) ?
A. 100

Q. Which kinase still bound, per cent of control value belongs to Cc1ccc2nc(NCCN)c3ncc(C)n3c2c1 ?
A. 86

Q. Which kinase still bound, per cent of control value belongs to Cc1cc([C@@H](C)Nc2ccccc2C(=O)O)c2nc(N3CCOCC3)cc(=O)n2c1 ?
A. 91

Q. Which kinase still bound, per cent of control value belongs to COc1cc(N2CCN(C)CC2)ccc1Nc1nc(N)c(C(=O)c2c(Cl)cccc2Cl)s1 ?
A. 93

Q. Which kinase still bound, per cent of control value belongs to N#Cc1c(NC(=O)c2cccc3ccccc23)sc2c1CCCC2 ?
A. 100

Q. Which kinase still bound, per cent of control value belongs to CCCS(=O)(=O)Nc1ccc(F)c(C(=O)c2c[nH]c3ncc(-c4ccc(Cl)cc4)cc23)c1F ?
A. 100

Q. Which kinase still bound, per cent of control value belongs to O=C(NC1CC1)c1cccc(-c2ccc3c(NC(=O)C4CC4)n[nH]c3c2)c1 ?
A. 100

###

Exercise: state measured kinase still bound, per cent of control for each of the molecules provided.
System under test: EPHA5 (human) (UniProt P54756)
Sequence (P54756 whole entry, looked up): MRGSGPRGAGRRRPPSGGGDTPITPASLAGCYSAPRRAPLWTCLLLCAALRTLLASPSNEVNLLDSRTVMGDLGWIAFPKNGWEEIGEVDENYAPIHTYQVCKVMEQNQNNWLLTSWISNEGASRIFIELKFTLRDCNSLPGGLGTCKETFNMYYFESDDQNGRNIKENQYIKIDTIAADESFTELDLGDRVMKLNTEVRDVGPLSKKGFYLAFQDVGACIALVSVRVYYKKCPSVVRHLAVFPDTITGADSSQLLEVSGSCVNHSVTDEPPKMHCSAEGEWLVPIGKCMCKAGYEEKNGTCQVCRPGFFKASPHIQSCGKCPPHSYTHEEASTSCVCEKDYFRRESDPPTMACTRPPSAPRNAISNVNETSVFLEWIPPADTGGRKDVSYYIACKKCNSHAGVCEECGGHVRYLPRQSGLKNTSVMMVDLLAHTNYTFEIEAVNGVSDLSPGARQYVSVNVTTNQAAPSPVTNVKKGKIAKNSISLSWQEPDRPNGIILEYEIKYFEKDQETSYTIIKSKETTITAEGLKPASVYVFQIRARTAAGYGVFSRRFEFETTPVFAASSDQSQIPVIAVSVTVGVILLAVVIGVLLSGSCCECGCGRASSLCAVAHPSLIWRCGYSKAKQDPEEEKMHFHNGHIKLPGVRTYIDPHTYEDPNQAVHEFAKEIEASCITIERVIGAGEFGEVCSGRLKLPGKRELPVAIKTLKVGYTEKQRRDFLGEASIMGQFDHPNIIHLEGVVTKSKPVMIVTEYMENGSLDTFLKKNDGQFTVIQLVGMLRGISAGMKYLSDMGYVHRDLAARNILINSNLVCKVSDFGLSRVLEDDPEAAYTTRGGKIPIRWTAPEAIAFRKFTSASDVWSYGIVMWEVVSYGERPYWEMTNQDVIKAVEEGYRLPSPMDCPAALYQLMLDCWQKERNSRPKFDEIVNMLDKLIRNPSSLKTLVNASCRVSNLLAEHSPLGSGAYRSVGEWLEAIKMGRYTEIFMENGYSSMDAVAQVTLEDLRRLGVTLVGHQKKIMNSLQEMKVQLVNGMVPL
Assay notes: KINOMEscan competition binding
Applied conditions: compound 10.0 µM
The figure you give is taken to be in %; do not add the unit.

Q. Which kinase still bound, per cent of control value belongs to Cc1ccc(C(=O)Nc2cccc(C(F)(F)F)c2)cc1Nc1cncc(C(N)=O)c1 ?
A. 1.1

Q. Which kinase still bound, per cent of control value belongs to CCN1CCN(Cc2ccc(Nc3ncc4c(n3)N(C)c3ccccc3C(=O)N4C)cc2C(F)(F)F)CC1 ?
A. 100

Q. Which kinase still bound, per cent of control value belongs to O=C1Nc2ccc(I)cc2/C1=C/c1cc(Br)c(O)c(Br)c1 ?
A. 91

Q. Which kinase still bound, per cent of control value belongs to O=C(O)c1ccc(Nc2ncc3c(n2)-c2ccc(Cl)cc2C(c2c(F)cccc2F)=NC3)cc1 ?
A. 1.5

Q. Which kinase still bound, per cent of control value belongs to CCOc1cc2ncc(C#N)c(Nc3ccc(OCc4ccccn4)c(Cl)c3)c2cc1NC(=O)/C=C/CN(C)C ?
A. 100

Q. Which kinase still bound, per cent of control value belongs to Cn1c(=O)n(-c2ccc(C(C)(C)C#N)cc2)c2c3cc(-c4cnc5ccccc5c4)ccc3ncc21 ?
A. 100

Q. Which kinase still bound, per cent of control value belongs to CN(C)C/C=C/C(=O)Nc1cccc(Nc2ncc3c(n2)N(C)c2ccccc2C(=O)N3C)c1 ?
A. 99

Q. Which kinase still bound, per cent of control value belongs to COc1cc(N2CCN(C)CC2)ccc1Nc1nc(N)c(C(=O)c2c(Cl)cccc2Cl)s1 ?
A. 100

Q. Which kinase still bound, per cent of control value belongs to Cc1cc([C@@H](C)Nc2ccccc2C(=O)O)c2nc(N3CCOCC3)cc(=O)n2c1 ?
A. 99

Q. Which kinase still bound, per cent of control value belongs to C=CC(=O)Nc1cc(NC(=O)c2ccc(C)c(NC(=O)c3ccno3)c2)cc(C(F)(F)F)c1 ?
A. 80

Q. Which kinase still bound, per cent of control value belongs to COc1cc(C(=O)NC2CCN(C)CC2)ccc1Nc1ncc2c(n1)N(C1CCCC1)CCC(=O)N2C(C)C ?
A. 100

Q. Which kinase still bound, per cent of control value belongs to Cc1ccc2nc(NCCN)c3ncc(C)n3c2c1 ?
A. 100

Q. Which kinase still bound, per cent of control value belongs to C=CC(=O)Nc1cccc(Nc2nc(N[C@H]3CC[C@H](N(C)C)CC3)nc3c2ncn3C(C)C)c1 ?
A. 76

Q. Which kinase still bound, per cent of control value belongs to CCCS(=O)(=O)Nc1ccc(F)c(C(=O)c2c[nH]c3ncc(-c4ccc(Cl)cc4)cc23)c1F ?
A. 98

Q. Which kinase still bound, per cent of control value belongs to N#Cc1c(NC(=O)c2cccc3ccccc23)sc2c1CCCC2 ?
A. 89

Q. Which kinase still bound, per cent of control value belongs to C=CC(=O)Nc1cccc(Oc2nc(Nc3ccc(N4CCN(C)CC4)cc3OC)ncc2Cl)c1 ?
A. 100

Q. Which kinase still bound, per cent of control value belongs to OCCCNc1cc(-c2ccnc(Nc3cccc(Cl)c3)n2)ccn1 ?
A. 100

Q. Which kinase still bound, per cent of control value belongs to O=C(NC1CC1)c1cccc(-c2ccc3c(NC(=O)C4CC4)n[nH]c3c2)c1 ?
A. 95

Q. Which kinase still bound, per cent of control value belongs to O=C(NOC[C@H](O)CO)c1ccc(F)c(F)c1Nc1ccc(I)cc1F ?
A. 96

Q. Which kinase still bound, per cent of control value belongs to CC[C@@H]1C(=O)N(C)c2cnc(Nc3ccc(C(=O)NC4CCN(C)CC4)cc3OC)nc2N1C1CCCC1 ?
A. 100

Q. Which kinase still bound, per cent of control value belongs to Nc1ccc(-c2ccc3ncc4ccc(=O)n(-c5cccc(C(F)(F)F)c5)c4c3c2)cn1 ?
A. 100

Q. Which kinase still bound, per cent of control value belongs to CCC(=O)N1CCN(c2ccc(-n3c(=O)ccc4cnc5ccc(-c6cnc7ccccc7c6)cc5c43)cc2C(F)(F)F)CC1 ?
A. 100

Q. Which kinase still bound, per cent of control value belongs to COc1cc(C(=O)NC2CCN(C)CC2)ccc1Nc1ncc2c(n1)N(C1CCCC1)C(C)CC(=O)N2C (stereo not given) ?
A. 100

Q. Which kinase still bound, per cent of control value belongs to C[C@@H](Oc1cc(-n2cnc3ccc(CN4CCN(C)CC4)cc32)sc1C(N)=O)c1ccccc1C(F)(F)F ?
A. 100

Q. Which kinase still bound, per cent of control value belongs to Cc1ccc(NC(=O)c2cccc(C(C)(C)C#N)c2)cc1Nc1ccc2ncn(C)c(=O)c2c1 ?
A. 1

###

System under test: SGK110 (human) (UniProt P0C264)
Sequence (P0C264 whole entry, looked up): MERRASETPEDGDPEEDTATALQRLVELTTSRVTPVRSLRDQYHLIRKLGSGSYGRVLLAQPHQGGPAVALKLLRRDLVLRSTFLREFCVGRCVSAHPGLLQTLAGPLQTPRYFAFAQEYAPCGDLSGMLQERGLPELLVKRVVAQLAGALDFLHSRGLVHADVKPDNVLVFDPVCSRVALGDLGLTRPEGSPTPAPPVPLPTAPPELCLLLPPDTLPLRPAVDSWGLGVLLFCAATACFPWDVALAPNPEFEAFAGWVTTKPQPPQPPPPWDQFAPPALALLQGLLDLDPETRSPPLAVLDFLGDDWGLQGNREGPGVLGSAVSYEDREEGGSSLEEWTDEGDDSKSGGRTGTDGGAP
Assay notes: KINOMEscan competition binding
Applied conditions: compound 10.0 µM
Exercise: state measured kinase still bound, per cent of control for each of the compounds provided.
The figure you give is taken to be in %; do not add the unit.

Q. Provide the documented kinase still bound, per cent of control with SGK110 (human) (UniProt P0C264) as the system for C[C@@H](Oc1cc(-n2cnc3ccc(CN4CCN(C)CC4)cc32)sc1C(N)=O)c1ccccc1C(F)(F)F
A. 100

Q. Provide the documented kinase still bound, per cent of control with SGK110 (human) (UniProt P0C264) as the system for O=C(NOC[C@H](O)CO)c1ccc(F)c(F)c1Nc1ccc(I)cc1F
A. 100

Q. Provide the documented kinase still bound, per cent of control with SGK110 (human) (UniProt P0C264) as the system for C=CC(=O)Nc1cccc(Oc2nc(Nc3ccc(N4CCN(C)CC4)cc3OC)ncc2Cl)c1
A. 100

Q. Provide the documented kinase still bound, per cent of control with SGK110 (human) (UniProt P0C264) as the system for Cc1cc([C@@H](C)Nc2ccccc2C(=O)O)c2nc(N3CCOCC3)cc(=O)n2c1
A. 100

Q. Provide the documented kinase still bound, per cent of control with SGK110 (human) (UniProt P0C264) as the system for COc1cc(C(=O)NC2CCN(C)CC2)ccc1Nc1ncc2c(n1)N(C1CCCC1)CCC(=O)N2C(C)C
A. 100

Q. Provide the documented kinase still bound, per cent of control with SGK110 (human) (UniProt P0C264) as the system for Cn1c(=O)n(-c2ccc(C(C)(C)C#N)cc2)c2c3cc(-c4cnc5ccccc5c4)ccc3ncc21
A. 100

Q. Provide the documented kinase still bound, per cent of control with SGK110 (human) (UniProt P0C264) as the system for CCN1CCN(Cc2ccc(Nc3ncc4c(n3)N(C)c3ccccc3C(=O)N4C)cc2C(F)(F)F)CC1
A. 0.6

Q. Provide the documented kinase still bound, per cent of control with SGK110 (human) (UniProt P0C264) as the system for O=C1Nc2ccc(I)cc2/C1=C/c1cc(Br)c(O)c(Br)c1
A. 100

Q. Provide the documented kinase still bound, per cent of control with SGK110 (human) (UniProt P0C264) as the system for CN(C)C/C=C/C(=O)Nc1cccc(Nc2ncc3c(n2)N(C)c2ccccc2C(=O)N3C)c1
A. 0.25

Q. Provide the documented kinase still bound, per cent of control with SGK110 (human) (UniProt P0C264) as the system for COc1cc(C(=O)NC2CCN(C)CC2)ccc1Nc1ncc2c(n1)N(C1CCCC1)C(C)CC(=O)N2C (stereo not given)
A. 100

Q. Provide the documented kinase still bound, per cent of control with SGK110 (human) (UniProt P0C264) as the system for Nc1ccc(-c2ccc3ncc4ccc(=O)n(-c5cccc(C(F)(F)F)c5)c4c3c2)cn1
A. 100

Q. Provide the documented kinase still bound, per cent of control with SGK110 (human) (UniProt P0C264) as the system for Cc1ccc(NC(=O)c2cccc(C(C)(C)C#N)c2)cc1Nc1ccc2ncn(C)c(=O)c2c1
A. 100

Q. Provide the documented kinase still bound, per cent of control with SGK110 (human) (UniProt P0C264) as the system for C=CC(=O)Nc1cccc(Nc2nc(N[C@H]3CC[C@H](N(C)C)CC3)nc3c2ncn3C(C)C)c1
A. 88

Q. Provide the documented kinase still bound, per cent of control with SGK110 (human) (UniProt P0C264) as the system for Cc1ccc(C(=O)Nc2cccc(C(F)(F)F)c2)cc1Nc1cncc(C(N)=O)c1
A. 100

Q. Provide the documented kinase still bound, per cent of control with SGK110 (human) (UniProt P0C264) as the system for COc1cc(N2CCN(C)CC2)ccc1Nc1nc(N)c(C(=O)c2c(Cl)cccc2Cl)s1
A. 100

Q. Provide the documented kinase still bound, per cent of control with SGK110 (human) (UniProt P0C264) as the system for Cc1ccc2nc(NCCN)c3ncc(C)n3c2c1
A. 100

Q. Provide the documented kinase still bound, per cent of control with SGK110 (human) (UniProt P0C264) as the system for C=CC(=O)Nc1cc(NC(=O)c2ccc(C)c(NC(=O)c3ccno3)c2)cc(C(F)(F)F)c1
A. 100

Q. Provide the documented kinase still bound, per cent of control with SGK110 (human) (UniProt P0C264) as the system for N#Cc1c(NC(=O)c2cccc3ccccc23)sc2c1CCCC2
A. 91

Q. Provide the documented kinase still bound, per cent of control with SGK110 (human) (UniProt P0C264) as the system for CCC(=O)N1CCN(c2ccc(-n3c(=O)ccc4cnc5ccc(-c6cnc7ccccc7c6)cc5c43)cc2C(F)(F)F)CC1
A. 94

Q. Provide the documented kinase still bound, per cent of control with SGK110 (human) (UniProt P0C264) as the system for CCCS(=O)(=O)Nc1ccc(F)c(C(=O)c2c[nH]c3ncc(-c4ccc(Cl)cc4)cc23)c1F
A. 100

Q. Provide the documented kinase still bound, per cent of control with SGK110 (human) (UniProt P0C264) as the system for O=C(O)c1ccc(Nc2ncc3c(n2)-c2ccc(Cl)cc2C(c2c(F)cccc2F)=NC3)cc1
A. 58

Q. Provide the documented kinase still bound, per cent of control with SGK110 (human) (UniProt P0C264) as the system for O=C(NC1CC1)c1cccc(-c2ccc3c(NC(=O)C4CC4)n[nH]c3c2)c1
A. 100

Q. Provide the documented kinase still bound, per cent of control with SGK110 (human) (UniProt P0C264) as the system for CCOc1cc2ncc(C#N)c(Nc3ccc(OCc4ccccn4)c(Cl)c3)c2cc1NC(=O)/C=C/CN(C)C
A. 100

Q. Provide the documented kinase still bound, per cent of control with SGK110 (human) (UniProt P0C264) as the system for CC[C@@H]1C(=O)N(C)c2cnc(Nc3ccc(C(=O)NC4CCN(C)CC4)cc3OC)nc2N1C1CCCC1
A. 100

Q. Provide the documented kinase still bound, per cent of control with SGK110 (human) (UniProt P0C264) as the system for OCCCNc1cc(-c2ccnc(Nc3cccc(Cl)c3)n2)ccn1
A. 100
